Exercise: for every item that follows, state its recorded hERG current change (%, negative = inhibition) at 10uM.
Assay target: human ether-à-go-go-related gene (hERG) potassium channel (human, UniProt Q12809);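 note: peak tail current of the secondary pulse compared with the same well before compound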
Sequence (Q12809 whole entry, looked up): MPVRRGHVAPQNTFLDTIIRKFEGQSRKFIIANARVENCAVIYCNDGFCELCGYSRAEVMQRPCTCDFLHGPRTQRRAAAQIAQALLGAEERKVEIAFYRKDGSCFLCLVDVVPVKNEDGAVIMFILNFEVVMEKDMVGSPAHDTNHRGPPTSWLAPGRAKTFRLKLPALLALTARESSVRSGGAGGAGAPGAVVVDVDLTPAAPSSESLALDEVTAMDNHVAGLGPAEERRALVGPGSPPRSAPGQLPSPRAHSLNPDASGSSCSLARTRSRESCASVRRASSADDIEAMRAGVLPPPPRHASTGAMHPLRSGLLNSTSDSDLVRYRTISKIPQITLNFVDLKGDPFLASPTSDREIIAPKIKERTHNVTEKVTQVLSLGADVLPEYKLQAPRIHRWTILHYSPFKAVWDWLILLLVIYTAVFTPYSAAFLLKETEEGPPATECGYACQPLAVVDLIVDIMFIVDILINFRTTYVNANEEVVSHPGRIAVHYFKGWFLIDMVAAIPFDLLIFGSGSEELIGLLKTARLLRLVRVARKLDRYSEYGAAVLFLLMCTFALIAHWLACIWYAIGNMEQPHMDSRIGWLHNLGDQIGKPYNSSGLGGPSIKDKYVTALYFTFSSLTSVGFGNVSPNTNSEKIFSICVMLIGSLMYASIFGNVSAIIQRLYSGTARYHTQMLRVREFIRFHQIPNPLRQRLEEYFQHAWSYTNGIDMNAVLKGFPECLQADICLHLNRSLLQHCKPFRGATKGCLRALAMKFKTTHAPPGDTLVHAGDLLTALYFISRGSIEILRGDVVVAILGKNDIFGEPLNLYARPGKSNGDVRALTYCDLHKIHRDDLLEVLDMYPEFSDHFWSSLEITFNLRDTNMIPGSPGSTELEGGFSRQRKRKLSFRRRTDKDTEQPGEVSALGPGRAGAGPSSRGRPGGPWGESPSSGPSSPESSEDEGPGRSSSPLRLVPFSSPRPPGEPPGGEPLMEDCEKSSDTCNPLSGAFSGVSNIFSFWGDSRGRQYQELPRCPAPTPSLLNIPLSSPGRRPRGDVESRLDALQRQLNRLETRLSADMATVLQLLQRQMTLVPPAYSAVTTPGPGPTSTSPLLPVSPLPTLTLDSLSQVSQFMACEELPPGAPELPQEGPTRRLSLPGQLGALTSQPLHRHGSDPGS
Assay name: primary screen, population patch clamp on CHO cells stably expressing hERG; higher = less effect of the substance
Among all 310,000 compounds or so, about 14,000 (4.5%) showed an effect of 50% or more. Effects have a minus sign here. The list comes from a sample in which strong results are over-represented; it also holds close analogues and randomly drawn compounds.
# value in %; strip the unit string

The compound identified as O=C(COC(=O)c1cccnc1Cl)NCC1CCCO1 (centres unmarked) registered its hERG current change (%, negative = inhibition) at 10uM at 10.8

The compound identified as Fc1ccc(C2CCCN2Cc2nc(Cc3ccccc3)no2)cc1 (centres unmarked) registered its hERG current change (%, negative = inhibition) at 10uM at -15.2

The compound identified as "COC(=O)C1=C(c2ccc(F)cc2OCc2ccccc2)C[C@@H]2CC[C@H]1N2C(=O)NCc1cccc(OC)c1" registered its hERG current change (%, negative = inhibition) at 10uM at 2.72

The compound identified as "Cc1ccc(C(=O)NCCc2cccs2)cc1" registered its hERG current change (%, negative = inhibition) at 10uM at 7.84

The compound identified as "Cn1c2ccccc2c(=O)c2cc(C#Cc3ccccn3)ccc21" registered its hERG current change (%, negative = inhibition) at 10uM at -0.776
